Measured pIC50, listed per entry for reference.
# Target Under Test: full length Keap1 protein / full length NRF2 protein (Homo sapiens)
# Construct: full length NRF2 protein and full length Keap1 protein (Keap1 exists a dimer) are used; His
# Sequence (Q14145 whole entry): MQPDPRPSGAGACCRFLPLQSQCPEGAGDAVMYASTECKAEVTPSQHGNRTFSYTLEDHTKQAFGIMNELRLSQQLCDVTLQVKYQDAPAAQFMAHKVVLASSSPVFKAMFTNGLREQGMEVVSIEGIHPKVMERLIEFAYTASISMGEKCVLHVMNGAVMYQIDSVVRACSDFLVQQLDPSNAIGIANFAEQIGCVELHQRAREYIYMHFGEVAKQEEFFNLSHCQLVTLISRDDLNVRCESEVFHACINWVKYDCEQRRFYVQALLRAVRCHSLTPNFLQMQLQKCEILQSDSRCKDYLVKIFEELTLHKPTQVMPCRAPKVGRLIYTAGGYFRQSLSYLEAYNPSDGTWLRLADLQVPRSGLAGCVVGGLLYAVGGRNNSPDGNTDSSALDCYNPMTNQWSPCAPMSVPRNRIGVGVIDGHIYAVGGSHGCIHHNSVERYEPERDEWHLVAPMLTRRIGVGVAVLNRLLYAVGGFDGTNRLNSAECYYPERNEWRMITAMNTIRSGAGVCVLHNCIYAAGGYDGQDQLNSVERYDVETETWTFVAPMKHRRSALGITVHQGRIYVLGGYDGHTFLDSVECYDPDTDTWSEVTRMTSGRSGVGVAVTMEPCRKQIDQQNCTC
# Test Summary: NRF2-Keap1 TR-FRET Assay
# Format: binding
# Run Parameters: 25 nM Keap1-FlagHis and 50 nM biotin-NRF2 added
pIC50: −log10 of the molar value.

Compound | Target Under Test | pIC50
CCOC[C@H]1CCCN1C(=O)c1cccc(-c2cccc(-n3ncc(C(=O)O)c3[C@@H]3C[C@H]3c3cn(C)nn3)c2)c1F [Example 268] | full length Keap1 protein / full length NRF2 protein (Homo sapiens) | 7.00 to 8.00
Cn1cc(C2CC2c2c(C(=O)O)cnn2-c2cccc(-c3cccc(OC4CCCN(C(=O)OC(C)(C)C)C4)c3)c2)nn1 (stereo not drawn) [Example 232] | full length Keap1 protein / full length NRF2 protein (Homo sapiens) | 7.00 to 8.00

I'd like to know its pIC50. The compound in question is C[C@@H]1CCC[C@H](C)N1C(=O)c1cccc(-c2cccc(-n3ncc(C(=O)O)c3[C@H]3C[C@@H]3c3cn(C)nn3)c2)c1F (single isomer, unassigned) [Example 261]
7.00 to 8.00
